Species on record: Rattus norvegicus
Assay: DrugMatrix - Regimen: Daily Repeat
Assay type: toxicity, organism-based, Sprague-Dawley
Design: regimen Daily Repeat, gender Male, age 6-8 weeks
Conditions: in vivo, po, 0 mg/kg, 72 h, tissue Plasma, route oral GAVAGE, dose level Control, time 3 day, vehicle .5 % CMC
I'd appreciate it if you could supply BLOOD UREA NITROGEN values for the items below.
Report as a plain number; the unit mg/dL is understood.

Ask | Quote BLOOD UREA NITROGEN reported for CN1CCN(CCCN2c3ccccc3Sc3ccc(Cl)cc32)CC1 [PROCHLORPERAZINE] please.
Reply | 16.33

Ask | Quote BLOOD UREA NITROGEN reported for Cc1ccc(/N=C/N(C)/C=N/c2ccc(C)cc2C)c(C)c1 [AMITRAZ] please.
Reply | 15

Ask | Quote BLOOD UREA NITROGEN reported for C1CCC(C(CC2CCCCN2)C2CCCCC2)CC1 (centres undefined) [PERHEXILINE] please.
Reply | 14.5

Ask | Quote BLOOD UREA NITROGEN reported for Cc1nc2n(c(=O)c1CCN1CCC(c3noc4cc(F)ccc34)CC1)CCCC2 [RISPERIDONE] please.
Reply | 15

Ask | Quote BLOOD UREA NITROGEN reported for N=C(N)NCCN1CCCCCCC1 [GUANETHIDINE] please.
Reply | 16.83

Ask | Quote BLOOD UREA NITROGEN reported for O=C(CCCN1CC=C(n2c(=O)[nH]c3ccccc32)CC1)c1ccc(F)cc1 [DROPERIDOL] please.
Reply | 15.17

Ask | Quote BLOOD UREA NITROGEN reported for CCOP(=S)(OCC)Oc1nc(Cl)c(Cl)cc1Cl [CHLORPYRIFOS] please.
Reply | 16.67

Ask | Quote BLOOD UREA NITROGEN reported for NC1=NC(=O)C(c2ccccc2)O1 (centres undefined) [PEMOLINE] please.
Reply | 15.67

Ask | Quote BLOOD UREA NITROGEN reported for CC(C)(C)NC(=O)[C@@H]1C[C@@H]2CCCC[C@@H]2CN1C[C@@H](O)[C@H](Cc1ccccc1)NC(=O)[C@H](CC(N)=O)NC(=O)c1ccc2ccccc2n1 please.
Reply | 17.67

Ask | Quote BLOOD UREA NITROGEN reported for Nc1ccn([C@H]2CC[C@@H](CO)O2)c(=O)n1 [ZALCITABINE] please.
Reply | 17

Ask | Quote BLOOD UREA NITROGEN reported for ClC(Br)Br [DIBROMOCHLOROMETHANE] please.
Reply | 18

Ask | Quote BLOOD UREA NITROGEN reported for ClC(Cl)Br [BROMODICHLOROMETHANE] please.
Reply | 18

Ask | Quote BLOOD UREA NITROGEN reported for OCCN(CCO)c1nc(N2CCCCC2)c2nc(N(CCO)CCO)nc(N3CCCCC3)c2n1 [DIPYRIDAMOLE] please.
Reply | 16.83

Ask | Quote BLOOD UREA NITROGEN reported for CCCN1C[C@H](CSC)C[C@@H]2c3cccc4[nH]cc(c34)C[C@H]21 [PERGOLIDE] please.
Reply | 15.5

Ask | Quote BLOOD UREA NITROGEN reported for CCCCc1oc2ccccc2c1C(=O)c1cc(I)c(OCCN(CC)CC)c(I)c1 [AMIODARONE] please.
Reply | 15

Ask | Quote BLOOD UREA NITROGEN reported for CC1CC(OC(=O)C(O)c2ccccc2)CC(C)(C)C1 (centres undefined) [CYCLANDELATE] please.
Reply | 16.83

Ask | Quote BLOOD UREA NITROGEN reported for COc1nc(C)nc(Cl)c1N=C1NCCN1 [MOXONIDINE] please.
Reply | 16

Ask | Quote BLOOD UREA NITROGEN reported for CCn1cc(C(=O)O)c(=O)c2cc(F)c(N3CCNCC3)cc21 [NORFLOXACIN] please.
Reply | 15

Ask | Quote BLOOD UREA NITROGEN reported for Cc1ccc2cc3c(ccc4ccccc43)c3c2c1CC3 [3-METHYLCHOLANTHRENE] please.
Reply | 15
